Tested on: MS2 coat protein
Assay: apparent Kd, MS2 coat protein; higher = weaker binding; RNA-MaP array; FMN 200 µM where present
Conditions: designed as: OFF switch for flavin mononucleotide; no ligand
property_label: apparent Kd

Solved cases below.
INSERT INTO measurements (seq_text, property_label, measured_result) VALUES
  ('GCCAAGCUAGGAUAUACCCAGGGUUUGUUCUCUAACAACACACAUGAGGAUCACCCAUGUAGAAGGAGCCGGGA', 'apparent Kd', '38.3 nM'),
  ('GAAUGUCGGGUAGGAUAUGACUUGCCACGGAGGUCAGAAGGGCCACGACAUGAGGAUCACCCAUGUACUGUAUUCCUUUUUCAA', 'apparent Kd', '25.3 nM'),
  ('GCACGGUUGCUAGGAUAUCCUUGCGAUUAGCAAGGAGAAGGAGCACAUGAGGAUCACCCAUGUACCUCAAUAAUCCAUCCGUGC', 'apparent Kd', '14.8 nM'),
  ('GAGAAGGGAGGAUAUGCUGCUCGUCACUUGCGUGAUGAGUAGCAGAAGGCACAUGAGGAUCACCCAUGUAAAGG', 'apparent Kd', '84.2 nM'),
  ('GGGCUCGGAGGAUAUACAAUGGGCUCGGGAAAUCGGGUCUUACAUGAGGAUCACCCAUGUAGAAGGUCGGGUCU', 'apparent Kd', '22.2 nM'),
  ('CAACGUGGAGGAUAUUAGCGAGACAACAUGAGGAUCACCCAUGUGGUACUCAUCUCCUCCUGAGAAGGCUACGCCC', 'apparent Kd', '11.8 nM'),
  ('CGGUGACGUGUAGGAUAUGGAGGUGGGUUUUGGCCAGAAGGACAUGAGGAUCACCCAUGUGGUAGAGGGUUGGCGGCGGCCCGU', 'apparent Kd', '15 nM'),
  ('CUUGUUUAUGUAGGAUAUGCCUGGCGUGCCUUUGCAGAAGGACAUGAGGAUCACCCAUGUAGUAUGAGGCUUACCCUUGUCGCC', 'apparent Kd', '28.2 nM'),
  ('UUGAUGUCAGGAUAUGCUUAAUAUAUUUUAUUAUAAUAUAUACAUGAGGAUCACCCAUGUAGAAGGGACAUUGU', 'apparent Kd', '28.7 nM'),
  ('UAUGAGCGAGGAUAUGCUUGGGACUGUCGGAAUGUGGCGGGACAUGAGGAUCACCCAUGUAGAAGGCGCGAGCG', 'apparent Kd', '95.1 nM');

# ---- query sequence ----
Fill blank: measured apparent Kd of the sequence `GGUACUCAAAGAGUACCAAUACGAACAUGAGGAUCACCCAUGUAGGAUAUGCUACUCAAAGAGUAGCAGAAGGACAUGUGCUUA` is ____. 25.9 nM

###

Measured apparent Kd values are reported for all entries that follow.
Tested on: MS2 coat protein
Assay: apparent Kd, MS2 coat protein; higher = weaker binding; RNA-MaP array
Conditions: designed as: OFF switch for theophylline; no ligand
Record the value in nM, omitting the unit from your answer.

INSERT INTO measurements (seq_text, target_under_test, measured_result) VALUES
  ('UAGAAGAACAUGCGGGCUCCGGACGGUGAUACCAGAUCGAAAAGGAUCCCUUGGCAGCACUGCACAUGAGGAUCACCCAUGUGCA', 'MS2 coat protein', 9.2);

apparent Kd lookup needed for `ACUCGGCAUCAUGAUACCAGAGAGCCCGAGAUGCCUUAACACAUGAGGAUCACCCAUGUACUCCCUUGGCAGCAUCAUGCACUAU` , thanks. 19.4

Reported apparent Kd for `GAUGGAAUAAGAGAUACCAGACACAAUUUAGCAUGUAUAUACAUGAGGAUCACCCAUGUAGUCCCUUGGCAGCUCUGGUUAGUGU` : what is it? 26.5

Reported apparent Kd, sequence `GCUCGUUGCAUGGAUACCAGUUGAUAGGCCGCCUCCGGAUACAUGAGGAUCACCCAUGUCAACCCUUGGCAGCCACCCAAUAGGG` : ____ 9.36

What does the data say about its apparent Kd? Entry: `CUCCCACUAUCUGAUACCAGAGGAUAAACGUAGACUGGGAACAUGAGGAUCACCCAUGUCCUCCCUUGGCAGCAGGACUUAUCUC` 21.9

Each recorded value in this set is attributed to the EternaBench riboswitch data.
